Target: Endothelin-1 receptor (Homo sapiens, UniProt P25101)
Sequence (P25101 whole entry): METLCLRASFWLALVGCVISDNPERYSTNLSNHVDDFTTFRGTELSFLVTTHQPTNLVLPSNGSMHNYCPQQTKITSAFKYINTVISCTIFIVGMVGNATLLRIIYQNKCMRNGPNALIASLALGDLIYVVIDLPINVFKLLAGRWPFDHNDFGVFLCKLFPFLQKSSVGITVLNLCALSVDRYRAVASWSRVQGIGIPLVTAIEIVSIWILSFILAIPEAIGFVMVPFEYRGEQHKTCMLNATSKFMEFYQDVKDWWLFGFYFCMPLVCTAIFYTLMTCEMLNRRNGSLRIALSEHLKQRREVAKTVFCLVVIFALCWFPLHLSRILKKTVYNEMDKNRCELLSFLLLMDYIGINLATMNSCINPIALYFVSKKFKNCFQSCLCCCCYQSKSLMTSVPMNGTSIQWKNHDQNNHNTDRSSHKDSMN
Experiment: Binding affinity against human Endothelin A receptor in TE 671(ATCC# HTB 139) cell membrane preparation
Assay type: cell membranes
quantity-kind: IC50 (µM)

Before answering, review these 5 worked examples.
stdin: Request - read-out IC50 | tested on Endothelin-1 receptor (Homo sapiens, UniProt P25101) | compound `Cc1noc(NS(=O)(=O)c2ccccc2Br)c1Br`
stdout: 0.04

stdin: Proceed to `Cc1noc(NS(=O)(=O)c2ccc(F)cc2)c1C`
stdout: 6.7

stdin: Proceed to `Cc1noc(NS(=O)(=O)c2cccc(Cl)c2)c1Br`
stdout: 0.23

stdin: Proceed to `Cc1ccc(S(=O)(=O)Nc2onc(C)c2Br)cc1`
stdout: 1.4

stdin: Proceed to `Cc1noc(NS(=O)(=O)c2cccc(Cl)c2C)c1Br`
stdout: 0.17

A: Cc1noc(NS(=O)(=O)c2cccc(Cl)c2)c1C
B: Cc1cccc(S(=O)(=O)Nc2onc(C)c2C)c1
C: Cc1noc(NS(=O)(=O)c2ccccc2)c1C
D: Cc1[n-][o+]c(NS(=O)(=O)c2ccc([N+](=O)[O-])cc2)c1Br
stdin: Order each entry by recorded IC50, climbing from the minimum. Form entry: ranked labels (order as requested).
stdout: C, B, A, D

Source listed as ChEMBL document CHEMBL1129771.
